Where these numbers come from: patent US11357857B2

procedureDetails: Viscosity of PEG (Mw ~1,000,000) solution in Tris buffer with excipient (Examples 12-13)
Format: physicochemical
conditionDescription: excipient 40 mg/mL
Counter-ions that a name gives are not always drawn.
quantityMeasured: Viscosity Reduction (%)
Number in %, nothing else.

Here are 6 compounds together with their reported answers.
> print(dat)
                                   compound     quantitymeasured  recordedmeasurement
1  O=C(O)CN(CCN(CC(=O)O)CC(=O)O)CC(=O)O [EDTA/K salt, ethylenediaminetetraacetic acid (EDTA)]  Viscosity Reduction                   36
2  O=C(O)CN(CCN(CC(=O)O)CC(=O)O)CC(=O)O [EDTA/Na salt, ethylenediaminetetraacetic acid (EDTA)]  Viscosity Reduction                   35
3  O=C(O)[C@H](O)[C@@H](O)[C@H](O)[C@H](O)CO [D-Gluconic acid/Na salt, D-Gluconic acid]  Viscosity Reduction                   23
4  O=C(O)[C@H](O)[C@@H](O)[C@H](O)[C@H](O)CO [D-Gluconic acid/K salt, D-Gluconic acid]  Viscosity Reduction                   23
5                   NCCN [Ethylene diamine]  Viscosity Reduction                   17
6                O=C(O)CC(O)(CC(=O)O)C(=O)O  Viscosity Reduction                   44

Now turn to the next compound.
Query string: # input compound: O=P(O)(O)OCC(O)CO (stereo not shown) [glycerol phosphate] ; wanted: its Viscosity Reduction
Result string: 30

---

Tested on: bovine gamma globulin (BGG)
procedureDetails: Viscosity of 280 mg/mL BGG formulations in 50 mM histidine HCl pH 6 with excipient, cone and plate viscometer (Examples 1, 2, 4-6)
Assay type: physicochemical
conditionDescription: excipient 50 mg/mL
Counter-ions that a name gives are not always drawn.
The entries below come with measured Viscosity values attached.
Number in cP, nothing else.

Here are 3 compounds together with their reported answers.
> print(dat)
                                   compound  recordedmeasurement
1  NC(C1CCCCC1)C1CCCCC1 [DCHMA-HCl, dicyclohexylmethylamine]                   51
2  CN(C)C1CCCCC1 [DMCHA-HCl, dimethylcyclohexylamine]                   45
3  COc1cc(C(=O)[O-])ccc1O.[Na+] [Vanillic acid, sodium salt]                   50

Now turn to the next compound.
Query string: # input compound: Nc1ncnc2c1ncn2[C@@H]1O[C@H](COP(=O)(O)O)[C@@H](O)[C@H]1O [Adenosine monophosphate] ; wanted: its Viscosity
Result string: 66

---

Tested on: bovine gamma globulin (BGG)
procedureDetails: Viscosity of 280 mg/mL BGG formulations in 50 mM histidine HCl pH 6 with excipient, cone and plate viscometer (Examples 1, 2, 4-6)
Assay type: physicochemical
conditionDescription: excipient 50 mg/mL
Counter-ions that a name gives are not always drawn.
quantityMeasured: Viscosity Reduction (%)
Number in %, nothing else.

> print(dat)
                                   compound  recordedmeasurement
1  COc1cc(C(=O)[O-])ccc1O.[Na+] [Vanillic acid, sodium salt]                   37
2  CN(C)C1CCCCC1 [DMCHA-HCl, dimethylcyclohexylamine]                   43
3  NC(C1CCCCC1)C1CCCCC1 [DCHMA-HCl, dicyclohexylmethylamine]                   35

Now turn to the next compound.
Query string: # input compound: Nc1ncnc2c1ncn2[C@@H]1O[C@H](COP(=O)(O)O)[C@@H](O)[C@H]1O [Adenosine monophosphate] ; wanted: its Viscosity Reduction
Result string: 16

---

The entries below come with measured Viscosity Reduction values attached.
procedureDetails: Viscosity of PEG (Mw ~1,000,000) solution in Tris buffer with excipient (Examples 12-13)
Format: physicochemical
conditionDescription: excipient 20 mg/mL
Where a name gives a salt, the structure may show the parent alone.
Number in %, nothing else.

Here are 2 compounds together with their reported answers.
> print(dat)
                                   compound  recordedmeasurement
1  O=C(O)[C@H](O)[C@@H](O)[C@H](O)[C@H](O)CO [D-Gluconic acid/K salt, D-Gluconic acid]                   16
2  O=P(O)(O)OCC(O)CO (stereo not shown) [glycerol phosphate]                   18

Query string: # input compound: `O=C(O)CC(O)(CC(=O)O)C(=O)O` ; wanted: its Viscosity Reduction
Result string: 28

Query string: Now the same for `NCCN`
Result string: 15

---

procedureDetails: Viscosity of PEG (Mw ~1,000,000) solution in Tris buffer with excipient (Examples 12-13)
Format: physicochemical
conditionDescription: excipient 40 mg/mL
Where a name gives a salt, the structure may show the parent alone.
Threshold 70 cP: Viscosity strictly smaller gives 1, otherwise 0.

For orientation, consider the following solved cases.
> print(dat)
                                   molecule  grouplabel
1  O=C(O)[C@H](O)[C@@H](O)[C@H](O)[C@H](O)CO [D-Gluconic acid/Na salt, D-Gluconic acid]           0
2                   NCCN [Ethylene diamine]           0
3  O=C(O)[C@H](O)[C@@H](O)[C@H](O)[C@H](O)CO [D-Gluconic acid/K salt, D-Gluconic acid]           0
4                O=C(O)CC(O)(CC(=O)O)C(=O)O           1

Now for a further molecule.
Query string: Given O=C(O)CN(CCN(CC(=O)O)CC(=O)O)CC(=O)O [EDTA/K salt, ethylenediaminetetraacetic acid (EDTA)] , is recorded Viscosity strictly lower than 70 cP?
Result string: 1

---

Tested on: bovine gamma globulin (BGG)
conditionDescription: excipient 50 mg/mL
quantityMeasured: Viscosity Reduction (%)
Number in %, nothing else.

Here are 5 compounds together with their reported answers.
> print(dat)
                                   compound  recordedmeasurement
1              C1COCCN1.Cl [Morpholine HCl]                   40
2  CCN(CC)C(=O)c1cccnc1 [N,N-diethyl nicotinamide]                   33
3                           Cc1cc(C)nc(C)c1                   51
4          Cl.NCCc1c[nH]cn1 [Histamine HCl]                   59
5              NC(=O)c1cccnc1 [Niacinamide]                   49

Now turn to the next compound.
Query string: # input compound: Cn1cncc1C[C@H](NC(=O)CCN)C(=O)O.O=[N+]([O-])O [L-Anserine nitrate] ; wanted: its Viscosity Reduction
Result string: 21

---

procedureDetails: Viscosity of PEG (Mw ~1,000,000) solution in Tris buffer with excipient (Examples 12-13)
Format: physicochemical
conditionDescription: excipient 20 mg/mL
Where a name gives a salt, the structure may show the parent alone.
Threshold 80 cP: Viscosity strictly smaller gives met, otherwise not met.

For orientation, consider the following solved cases.
> print(dat)
                                   molecule  grouplabel
1  O=P(O)(O)OCC(O)CO (stereo not shown) [glycerol phosphate]     not met
2  O=C(O)CN(CCN(CC(=O)O)CC(=O)O)CC(=O)O [EDTA/K salt, ethylenediaminetetraacetic acid (EDTA)]         met
3  O=C(O)[C@H](O)[C@@H](O)[C@H](O)[C@H](O)CO [D-Gluconic acid/K salt, D-Gluconic acid]     not met
4                O=C(O)CC(O)(CC(=O)O)C(=O)O         met

Query string: Given O=C(O)[C@H](O)[C@@H](O)[C@H](O)[C@H](O)CO [D-Gluconic acid/Na salt, D-Gluconic acid] , is recorded Viscosity strictly lower than 80 cP?
Result string: not met

Query string: Now the same for O=C(O)CN(CCN(CC(=O)O)CC(=O)O)CC(=O)O [EDTA/Na salt, ethylenediaminetetraacetic acid (EDTA)]
Result string: met

Query string: Now the same for `NCCN`
Result string: not met

---

procedureDetails: Viscosity of PEG (Mw ~1,000,000) solution in Tris buffer with excipient (Examples 12-13)
Format: physicochemical
conditionDescription: excipient 20 mg/mL
Structures can show the parent of a compound that is named as a salt.
The entries below come with measured Viscosity Reduction values attached.

Here are 2 compounds together with their reported answers.
> print(dat)
                                   compound  recordedmeasurement
1  O=C(O)CN(CCN(CC(=O)O)CC(=O)O)CC(=O)O [EDTA/Na salt, ethylenediaminetetraacetic acid (EDTA)]                  26%
2  O=C(O)[C@H](O)[C@@H](O)[C@H](O)[C@H](O)CO [D-Gluconic acid/Na salt, D-Gluconic acid]                  17%

Now turn to the next compound.
Query string: # input compound: O=C(O)CN(CCN(CC(=O)O)CC(=O)O)CC(=O)O [EDTA/K salt, ethylenediaminetetraacetic acid (EDTA)] ; wanted: its Viscosity Reduction
Result string: 27%
